# system_name: sterol 14-reductase (Rattus norvegicus, UniProt A0ACM8Q6X4)
# Construct: microsome which was used as an enzyme source of sterol 14-reductase; from tissue; host or cells: liver microsomes of male Sprague-Dawley rats fed lovastatin and cholestyramine
# protocol_text: Inhibition of sterol 14-reductase in rat liver microsomes
# Assay type: biochemical
# condition_info: read-out: Enzyme Activity (relative in vitro activity for sterol 14-reductase, IC50 class)
Catalogue of IC50 readings, one per entry.

CCc1c2[n+](cc3c(OCc4cc(C)ccc4C)c(OC)ccc13)CCc1cc(OC)c(OC)cc1-2 [Compound No. 15]
> 100 µM

Record for CCc1c2[n+](cc3c(OCc4cc([N+](=O)[O-])ccc4OC)c(OC)ccc13)CCc1cc(OC)c(OC)cc1-2 [Compound No. 7] under target or system sterol 14-reductase (Rattus norvegicus, UniProt A0ACM8Q6X4): IC50 reported as 10 to 100 µM

Record for CCc1c2[n+](cc3c(OCc4c(F)cccc4Cl)c(OC)ccc13)CCc1cc(OC)c(OC)cc1-2 [Compound No. 23] under target or system sterol 14-reductase (Rattus norvegicus, UniProt A0ACM8Q6X4): IC50 reported as 10 to 100 µM

###

# system_name: sterol 14-reductase (Rattus norvegicus, UniProt A0ACM8Q6X4)
# Construct: microsome which was used as an enzyme source of sterol 14-reductase; from tissue; host or cells: liver microsomes of male Sprague-Dawley rats fed lovastatin and cholestyramine
# protocol_text: Inhibition of sterol 14-reductase in rat liver microsomes
# Format: biochemical
# condition_info: read-out: Enzyme Activity (relative in vitro activity for sterol 14-reductase, IC50 class)
pIC50: −log10 of the molar value.
Catalogue of pIC50 readings, one per entry.

Below: 5 molecules and their reported pIC50.
CCc1c2[n+](cc3c(OCc4ccc(C(C)(C)C)cc4)c(OC)ccc13)CCc1cc3c(cc1-2)OCO3 [Compound No. 46]
> 6.00
CCc1c2[n+](cc3c(OCc4cccc(Oc5ccccc5)c4)c(OC)ccc13)CCc1cc(OC)c(OC)cc1-2 [Compound No. 21]
< 4.00
CCOc1cc2c(cc1OCC)-c1c(CC)c3ccc(OC)c(OCc4ccc(Cl)nc4)c3c[n+]1CC2 [Compound No. 58]
4.00 to 5.00
CCc1c2[n+](cc3c(OCc4ccc(CS(=O)(=O)c5ccccc5)cc4)c(OC)ccc13)CCc1cc(OC)c(OC)cc1-2 [Compound No. 38]
4.00 to 5.00
CCc1c2[n+](cc3c(OCc4ccccc4I)c(OC)ccc13)CCc1cc(OC)c(OC)cc1-2 [Compound No. 43]
4.00 to 5.00

For this molecule ( CCOc1cc2c(cc1OCC)-c1c(CC)c3ccc(OCC)c(OCc4c(F)c(F)c(C(F)(F)F)c(F)c4F)c3c[n+]1CC2 [Compound No. 64] ), measured pIC50 is 4.00 to 5.00

For this molecule ( CCc1c2[n+](cc3c(OCc4c(F)c(F)c(C(F)(F)F)c(F)c4F)c(OC)ccc13)CCc1cc(OC)c(OC)cc1-2 [Compound No. 13] ), measured pIC50 is > 6.00

###

# system_name: sterol 14-reductase (Rattus norvegicus)
# Construct: microsome which was used as an enzyme source of sterol 14-reductase; from tissue; host or cells: liver microsomes of male Sprague-Dawley rats fed lovastatin and cholestyramine
# Sequence (A0ACM8Q6X4 1-418): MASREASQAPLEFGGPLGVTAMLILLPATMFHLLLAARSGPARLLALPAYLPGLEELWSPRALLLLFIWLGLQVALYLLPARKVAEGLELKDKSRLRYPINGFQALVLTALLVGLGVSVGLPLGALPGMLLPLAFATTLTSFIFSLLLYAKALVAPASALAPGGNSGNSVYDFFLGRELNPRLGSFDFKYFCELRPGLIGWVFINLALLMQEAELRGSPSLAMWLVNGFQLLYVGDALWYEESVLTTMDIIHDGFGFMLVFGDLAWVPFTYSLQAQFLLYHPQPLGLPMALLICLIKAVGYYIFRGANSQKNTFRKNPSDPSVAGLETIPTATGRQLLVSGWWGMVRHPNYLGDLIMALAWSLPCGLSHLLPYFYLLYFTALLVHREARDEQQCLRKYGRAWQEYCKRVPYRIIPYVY
# protocol_text: Inhibition of sterol 14-reductase in rat liver microsomes
# Format: biochemical
# condition_info: read-out: Enzyme Activity (relative in vitro activity for sterol 14-reductase, IC50 class)
Catalogue of IC50 readings, one per entry.

Below: 2 molecules and their reported IC50.
CCc1c2[n+](cc3c(OCc4cccc(C(F)(F)F)c4)c(OC)ccc13)CCc1cc(OC)c(OC)cc1-2
< 1 µM
CCc1c2[n+](cc3c(OCc4ccc(-c5ccccc5)cc4)c(OC)ccc13)CCc1cc(OC)c(OC)cc1-2
< 1 µM

For this molecule ( CCc1c2[n+](cc3c(OCc4cc(OC)cc(OC)c4)c(OC)ccc13)CCc1cc(OC)c(OC)cc1-2 ), measured IC50 is > 100 µM

For this molecule ( CCc1c2[n+](cc3c(OCc4c(F)c(F)c(F)c(F)c4F)c(OC)ccc13)CCc1cc(OC)c(OC)cc1-2 [Compound No. 70] ), measured IC50 is 10 to 100 µM

For this molecule ( CCc1c2[n+](cc3c(OCc4ccc(F)cc4C(F)(F)F)c(OC)ccc13)CCc1cc(OC)c(OC)cc1-2 ), measured IC50 is 10 to 100 µM

For this molecule ( C=Cc1ccc(COc2c(OC)ccc3c(CC)c4[n+](cc23)CCc2cc(OC)c(OC)cc2-4)cc1 ), measured IC50 is > 100 µM

For this molecule ( CCc1c2[n+](cc3c(OCc4ccc5ccccc5n4)c(OC)ccc13)CCc1cc(OC)c(OC)cc1-2 ), measured IC50 is 10 to 100 µM
